Readings of T/C for the listed molecules
Test system: P388 leukemia ip, CD2F1 mice, survival T/C
Assay: NCI In Vivo Anticancer Drug Screen. Data for tumor model P388 Leukemia (intraperitoneal) in CD2F1 (CDF1) mice
Details: endpoint: median survival time; dose: 50.0 mg/kg/injection; schedule: Q01DX009 (ip); vehicle: saline; higher = longer survival
Inconclusive results and toxic doses are left out.

Here is how some molecules turned out for T/C.
[[record]]
molecule = "C/[N+]([O-])=C/c1ncc([N+](=O)[O-])n1CCO"
target_of_assay = "P388 leukemia ip, CD2F1 mice, survival T/C"
test_readout = "T/C"
result = "102 % of control"

[[record]]
molecule = "CCOC(=O)NCCCCC(N)C(=O)O (configuration not stated)"
target_of_assay = "P388 leukemia ip, CD2F1 mice, survival T/C"
test_readout = "T/C"
result = "97 % of control"

[[record]]
molecule = "COc1ccc(CSC(=S)Nc2ccc(C)c(Br)c2)cc1"
target_of_assay = "P388 leukemia ip, CD2F1 mice, survival T/C"
test_readout = "T/C"
result = "100 % of control"


What does the record list as T/C for O=C(OCN1C(=O)C2C3C=CC(C2C1=O)C1C2C(=O)N(COC(=O)C4CCCN4)C(=O)C2C31)C1CCCN1 (configuration not stated) ?
108 % of control

What does the record list as T/C for CN1CCN(C(=O)CCSc2nc(-c3ccccc3)c(-c3ccccc3)o2)CC1 ?
110 % of control

What does the record list as T/C for COc1ccccc1C1COC(c2ccccc2)(c2ccccc2)S1 (configuration not stated) ?
108 % of control

What does the record list as T/C for COC(=O)c1c(C)cc(OC(=O)c2c(C)cc(O)c(C=O)c2O)c(C)c1O ?
95 % of control

What does the record list as T/C for O=[N+]([O-])c1ccc(C2OC(c3ccncc3)=NC2CO)cc1 (configuration not stated) ?
97 % of control

What does the record list as T/C for CNCCN1CCC(Cc2ccccc2)CC1 ?
100 % of control

What does the record list as T/C for COC(=O)c1cc(NC(=O)O/N=C/c2cccnc2)cc(C(=O)OC)c1 ?
103 % of control

What does the record list as T/C for COP1(OC)(OC)OC(C)=C(C)O1 ?
86 % of control

What does the record list as T/C for NC(CCl)C(=O)NO (configuration not stated) ?
99 % of control
